Test system: Zymoseptoria tritici (SEPTTR-184)
Assay: Efficacy of target gene fragments (MgCytB dsRNA tiles) on wheat plants, SEPTTR-184
Format: in vivo
Parameters: scale not given here
Conditions: 12.5 ppm; 3DC (curative)
Procedure: The 200 ppm rate for each treatment was prepared by adding the calculated volume of the corresponding dsRNA solution in TE buffer. Lower rates were prepared as 4-fold dilutions (50 ppm, 12.5 ppm, and 3.12 ppm). A non-target dsRNA control (YFP), a TE/phosphate buffer control, disease pressure control, and clean plant control were included. These plants were inoculated with an aqueous spore suspension of Zymoseptoria tritici either prior to or after fungicidal treatments. […]
quantity: Average of 2 trials SEPTTR-184 3DC
Numbers only.

molecule	recorded_number
MgCytB-T5: 172 bp dsRNA of Zymoseptoria CytB region T5, location 173-344 (SEQ ID NO:8) (nucleic acid, listed as Zymoseptoria tritici, complementary strand of dsRNA) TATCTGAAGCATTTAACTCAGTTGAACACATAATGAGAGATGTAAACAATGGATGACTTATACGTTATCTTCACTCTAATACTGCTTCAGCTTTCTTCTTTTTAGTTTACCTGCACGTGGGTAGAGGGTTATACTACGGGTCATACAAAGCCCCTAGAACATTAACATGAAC	66

Ask: Data request, read-out Average of 2 trials SEPTTR-184 3DC, for MgCytB-T6: 258 bp dsRNA of Zymoseptoria CytB region T6, location 775-1032 (SEQ ID NO:9) (nucleic acid, listed as Zymoseptoria tritici, complementary strand of dsRNA) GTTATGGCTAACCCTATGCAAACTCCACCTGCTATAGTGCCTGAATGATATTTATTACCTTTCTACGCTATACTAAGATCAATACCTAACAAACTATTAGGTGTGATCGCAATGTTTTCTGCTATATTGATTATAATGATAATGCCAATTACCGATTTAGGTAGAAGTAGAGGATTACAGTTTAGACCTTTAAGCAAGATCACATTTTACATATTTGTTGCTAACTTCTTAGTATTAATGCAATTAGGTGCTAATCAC
Result: 63
